The measured values listed here are drawn from ChEMBL document CHEMBL2146462.

Target: Tyrosinase (Agaricus bisporus, UniProt O42713)
Sequence (O42713 whole entry): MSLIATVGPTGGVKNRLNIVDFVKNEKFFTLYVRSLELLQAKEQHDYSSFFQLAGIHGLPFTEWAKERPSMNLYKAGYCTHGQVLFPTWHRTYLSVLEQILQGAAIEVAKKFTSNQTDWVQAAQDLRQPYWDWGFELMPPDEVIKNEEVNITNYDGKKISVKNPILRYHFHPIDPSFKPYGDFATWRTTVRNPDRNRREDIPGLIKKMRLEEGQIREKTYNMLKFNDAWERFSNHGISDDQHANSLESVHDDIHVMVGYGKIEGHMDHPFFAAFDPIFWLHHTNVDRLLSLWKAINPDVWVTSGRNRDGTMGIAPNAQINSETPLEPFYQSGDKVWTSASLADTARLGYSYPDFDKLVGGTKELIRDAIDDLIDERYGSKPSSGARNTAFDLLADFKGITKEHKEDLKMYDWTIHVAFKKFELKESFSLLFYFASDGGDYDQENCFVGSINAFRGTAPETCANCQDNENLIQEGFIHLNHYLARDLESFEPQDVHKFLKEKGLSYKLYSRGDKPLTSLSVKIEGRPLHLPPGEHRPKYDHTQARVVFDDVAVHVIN
Measure: IC50 (nM)

CC1(C)C=Cc2c(cc3c(c2O)C(=O)CC(c2ccc(O)cc2O)O3)O1 (stereo not drawn) [DALENIN] | 260

P: Oc1ccc(O)cc1 [HYDROQUINONE]
Q: O=C1CC(c2ccc(O)cc2O)Oc2cc(O)cc(O)c21 (stereo not drawn) [STEPPOGENIN]
Request: Sorting ascending by IC50, which comes first: P or Q ? Pick one and reply with its label.
Response: Q

====

Target: Tyrosinase (Agaricus bisporus, UniProt O42713)
Experiment: Inhibition of mushroom tyrosinase assessed as inhibition constant for compound-enzyme-substrate complex using as […] substrate by spectrophotometric analysis
Measure: pKi
Entry type: numeric. Quantity: pKi, the -log10 of concentration in molar units.

Request: // query pKi value for entry CC1(C)C=Cc2c(cc3c(c2O)C(=O)CC(c2ccc(O)cc2O)O3)O1 (stereo unspecified) [DALENIN]
Response: 3.80
